The origin of these recorded values is patent US12240813B2.

Test system: rat liver microsomes
measurement_protocol: Metabolic stability in rat liver microsomes (RLM)
condition_set: RLM; 10 min; Table 2, four test articles
measure_name: % Remaining of Initial, 10 min
Note: state the figure and append the unit.

[2H]C([2H])(Cc1c[nH]c2ccccc12)N(C)C [DMT-d2]: 56.6%
CN(C)CCc1c[nH]c2ccccc12 [DMT, reference compound]: 52.2%
[2H]C([2H])(c1c[nH]c2ccccc12)C([2H])([2H])N(C)C: 59.6%

Q) So what's the measured % Remaining of Initial, 10 min for this one? [2H]C([2H])([2H])N(C([2H])([2H])[2H])C([2H])([2H])C([2H])([2H])c1c[nH]c2ccccc12
A) 62.2%

* * *

subject_of_test: hrMAO-A (Homo sapiens)
Construct: purchased XenoTech Lot #8213001
measurement_protocol: Metabolic stability in the presence of hrMAO-A
Assay type: in vitro ADME
condition_set: MAO-A; values in square brackets are within 10% difference (assay's accuracy), no deuteration effect
measure_name: MAO, % (half-life as % vs. the related nondeuterated compound) (%)
Numbers only, in %.

Please state, for each entry, its recorded MAO, % (half-life as % vs. the related nondeuterated compound).
1. [2H]C([2H])(c1c[nH]c2ccc(OC)cc12)C([2H])([2H])N(C)C
2. [2H]C([2H])(Cc1c[nH]c2ccccc12)NCC
3. [2H]C([2H])(Cc1c[nH]c2cccc(O)c12)NC

A)
1: 229; 2: 145; 3: 395

* * *

subject_of_test: hrMAO-A (Homo sapiens, UniProt P21397)
Construct: purchased XenoTech Lot #8213001
Sequence (P21397 whole entry): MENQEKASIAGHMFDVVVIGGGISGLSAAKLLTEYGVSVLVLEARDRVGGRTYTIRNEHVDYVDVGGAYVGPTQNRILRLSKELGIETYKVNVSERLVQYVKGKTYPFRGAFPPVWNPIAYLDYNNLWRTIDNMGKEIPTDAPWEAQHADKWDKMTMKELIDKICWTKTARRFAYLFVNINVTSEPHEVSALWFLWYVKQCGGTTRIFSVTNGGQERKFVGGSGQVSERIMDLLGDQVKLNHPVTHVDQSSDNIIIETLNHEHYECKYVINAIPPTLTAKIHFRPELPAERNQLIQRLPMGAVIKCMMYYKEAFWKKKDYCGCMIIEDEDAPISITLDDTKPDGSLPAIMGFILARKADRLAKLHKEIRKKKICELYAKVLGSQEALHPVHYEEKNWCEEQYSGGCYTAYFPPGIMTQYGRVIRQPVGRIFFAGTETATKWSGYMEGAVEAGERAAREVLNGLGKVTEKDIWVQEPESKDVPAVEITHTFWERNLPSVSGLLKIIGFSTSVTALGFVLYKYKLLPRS
measurement_protocol: Metabolic stability in the presence of hrMAO-A
Assay type: in vitro ADME
condition_set: MAO-A; values in square brackets are within 10% difference (assay's accuracy), no deuteration effect
Label met when MAO, % (half-life as % vs. the related nondeuterated compound) is strictly below 400%; otherwise label not met.

Some entries whose results are on file:
[2H]C([2H])(Cc1c[nH]c2ccc(OC)cc12)N(C)CC: met
[2H]C([2H])([2H])NC([2H])([2H])Cc1c[nH]c2cccc(O)c12: not met
[2H]C([2H])(Cc1c[nH]c2cccc(OC)c12)N(C)C: met
[2H]C([2H])([2H])NC([2H])([2H])C([2H])([2H])c1c[nH]c2ccccc12: not met
[2H]C([2H])(Cc1c[nH]c2cccc(OC)c12)N(C)CC: met
[2H]C([2H])(c1c[nH]c2cccc(OC)c12)C([2H])([2H])N(C)C: met
[2H]C([2H])(Cc1c[nH]c2ccc(OC)cc12)N(C)C [5-MeO-DMT-α,α-d2]: met
[2H]C([2H])(Cc1c[nH]c2ccccc12)NC: not met

Q) State whether 400% exceeds MAO, % (half-life as % vs. the related nondeuterated compound) recorded for [2H]C([2H])([2H])Oc1ccc2[nH]cc(C([2H])([2H])C([2H])([2H])N(C([2H])([2H])[2H])C([2H])([2H])[2H])c2c1 .
A) met

Q) Next entry: [2H]C([2H])(NC)C([2H])([2H])c1c[nH]c2ccccc12
A) not met

* * *

subject_of_test: hrMAO-A (Homo sapiens, UniProt P21397)
Construct: purchased XenoTech Lot #8213001
measurement_protocol: Metabolic stability in the presence of hrMAO-A
Assay type: in vitro ADME
condition_set: MAO-A; values in square brackets are within 10% difference (assay's accuracy), no deuteration effect
Label y when MAO, % (half-life as % vs. the related nondeuterated compound) is strictly below 200%; otherwise label n.

[2H]C([2H])(Cc1c[nH]c2ccc(O)cc12)N(C)CC: y
[2H]C([2H])(c1c[nH]c2ccc(OC)cc12)C([2H])([2H])N(C)CC: y
[2H]c1[nH]c2c([2H])c([2H])c([2H])c([2H])c2c1C([2H])([2H])C([2H])([2H])N(C([2H])([2H])[2H])C([2H])([2H])[2H] [DMT-d15]: n
[2H]C([2H])(Cc1c[nH]c2ccc(O)cc12)N(C)C: n
[2H]C([2H])([2H])C([2H])([2H])NC([2H])([2H])C([2H])([2H])c1c[nH]c2ccccc12: y
[2H]C([2H])(c1c[nH]c2cccc(OC)c12)C([2H])([2H])N(C)CC: n

Q) State whether 200% exceeds MAO, % (half-life as % vs. the related nondeuterated compound) recorded for [2H]C([2H])(NC)C([2H])([2H])c1c[nH]c2cccc(O)c12 .
A) n

Q) Next entry: [2H]C([2H])(Cc1c[nH]c2ccccc12)N(C)CC
A) y

Q) Next entry: [2H]C([2H])(c1c[nH]c2ccccc12)C([2H])([2H])N(C)CC
A) y

Q) Next entry: [2H]C([2H])(c1c[nH]c2ccc(O)cc12)C([2H])([2H])N(C)CC
A) y

Q) Next entry: [2H]C([2H])([2H])Oc1ccc2[nH]cc(CC([2H])([2H])N(C([2H])([2H])[2H])C([2H])([2H])[2H])c2c1
A) n

Q) Next entry: [2H]C([2H])(NCC)C([2H])([2H])c1c[nH]c2ccccc12
A) y

Q) Next entry: [2H]C([2H])([2H])NC([2H])([2H])C([2H])([2H])c1c[nH]c2cccc(O)c12
A) n

Q) Next entry: [2H]C([2H])([2H])NC([2H])([2H])Cc1c[nH]c2ccccc12
A) n

Q) Next entry: [2H]C([2H])(c1c[nH]c2ccc(O)cc12)C([2H])([2H])N(C)C
A) n

Q) Next entry: [2H]C([2H])(Cc1c[nH]c2ccccc12)NC([2H])([2H])C([2H])([2H])[2H]
A) y

Q) Next entry: [2H]c1[nH]c2c([2H])c([2H])c([2H])c([2H])c2c1C([2H])([2H])C([2H])([2H])N(C)C
A) n

* * *

System: rat liver microsomes
measurement_protocol: Metabolic stability in rat liver microsomes (RLM)
condition_set: RLM; values in square brackets are within 10% difference (assay's accuracy), no deuteration effect
Would you mind labelling by RLM, % (half-life as % vs. the related nondeuterated compound)? At or over 200% is Y, under is N.

Some entries whose results are on file:
[2H]C([2H])([2H])Oc1ccc2[nH]cc(CCN(C)C)c2c1: N
[2H]c1[nH]c2c([2H])c([2H])c([2H])c([2H])c2c1CCN([2H])C(C)C: N
[2H]C([2H])(NCC)C([2H])([2H])c1c[nH]c2ccccc12: N
[2H]C([2H])(c1c[nH]c2ccc(O)cc12)C([2H])([2H])N(C)CC: N

Q) Does RLM, % (half-life as % vs. the related nondeuterated compound) meet or surpass 200% for [2H]C([2H])(NC)C([2H])([2H])c1c[nH]c2ccccc12 ?
A) N

Q) Next entry: [2H]C([2H])([2H])C([2H])([2H])NC([2H])([2H])C([2H])([2H])c1c[nH]c2ccccc12
A) N

Q) Next entry: [2H]c1[nH]c2c([2H])c([2H])c([2H])c([2H])c2c1C([2H])([2H])C([2H])([2H])N(C([2H])([2H])[2H])C([2H])([2H])[2H]
A) Y

Q) Next entry: [2H]C([2H])([2H])NC([2H])([2H])Cc1c[nH]c2ccccc12
A) Y

Q) Next entry: [2H]C([2H])(Cc1c[nH]c2cccc(O)c12)NC
A) N

Q) Next entry: [2H]C([2H])(Cc1c[nH]c2ccccc12)NC
A) N

Q) Next entry: [2H]C([2H])(Cc1c[nH]c2ccccc12)NC([2H])([2H])C([2H])([2H])[2H]
A) N

Q) Next entry: [2H]c1[nH]c2c([2H])c([2H])c(OC)c([2H])c2c1CCN(CC)CC
A) N

Q) Next entry: [2H]c1[nH]c2c([2H])c([2H])c([2H])c(O)c2c1CCN([2H])C(C)C
A) N

Q) Next entry: [2H]C([2H])(Cc1c[nH]c2ccc(O)cc12)N(C)CC
A) N

Q) Next entry: [2H]C([2H])([2H])NC([2H])([2H])C([2H])([2H])c1c[nH]c2ccccc12
A) Y

Q) Next entry: [2H]C([2H])(Cc1c[nH]c2ccc(OC)cc12)N(C)C [5-MeO-DMT-α,α-d2]
A) N

Q) Next entry: [2H]C([2H])(c1c[nH]c2ccc(O)cc12)C([2H])([2H])N(C)C
A) N

Q) Next entry: [2H]C([2H])(Cc1c[nH]c2ccccc12)NCC
A) N

* * *

Give % Remaining of Initial, 20 min for every item shown.
Test system: rat liver microsomes
measurement_protocol: Metabolic stability in rat liver microsomes (RLM)
condition_set: RLM; 20 min; Table 2, four test articles
Give bare numbers, in %.

Use the examples below as a reference point.
CN(C)CCc1c[nH]c2ccccc12 [DMT, reference compound]: 41.0
[2H]C([2H])([2H])N(C([2H])([2H])[2H])C([2H])([2H])C([2H])([2H])c1c[nH]c2ccccc12 [DMT-d10]: 55.2
[2H]C([2H])(Cc1c[nH]c2ccccc12)N(C)C [DMT-d2]: 48.8

Proceed to the following item.
Q) So what's the measured % Remaining of Initial, 20 min for this one? [2H]C([2H])(c1c[nH]c2ccccc12)C([2H])([2H])N(C)C [DMT-d4]
A) 51.8
